B1: C9orf9 (parent)
chain: LTKASLKPRGCSKPPWRPPGGKL

Variants of: B1
Assay: protein stability index of a GFP-peptide fusion (GPS, HEK-293T) (PSI 1-6); higher = more stable;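 also: lentivirally expressed fusions sorted by FACS into six bins by GFP to DsRed ratio, PSI derived from sequencing read proportions per bin multiplied by bin number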
Conditions: c terminus: native
Could you please report measured protein stability index for the items listed next?
Give bare numbers.

The cases that follow already have their protein stability index on record.
>>> measuredresult("P19S")
3.87
>>> measuredresult("G10C")
1.97

Now take the following variant into account.
Lookup result for G20V ; measured protein stability index: 3.83
